Collected melting point values appear next to each entry.

Worked cases, melting point given:
COc1ccccc1-c1nc2cc(NC(=O)c3c(C(=O)N4CCC4)cnn3C)ccn2n1 = 258 °C
Cc1cc(OCc2coc(/C=C/c3ccc(OC(F)(F)F)cc3)n2)ccc1CCCCc1cn(C(c2ccccc2)(c2ccccc2)c2ccccc2)nn1 = 135 to 136 °C
CNCCc1c[nH]c2ccc(Cn3cncn3)cc12 = 139 to 141 °C
O=C(NCC(O)c1ccccc1)c1ccc2n1Cc1ccccc1N(C(=O)COc1ccc(Cl)cc1)C2 (stereo not given) = 157 to 158 °C
Cc1cc(C(CC2CCCC2)c2ccc(S(C)(=O)=O)cc2)[nH]c1C(=O)O (stereo not given) = 127 °C
Cn1cc(C(F)(F)F)c(C(=O)O)c1F = 190 to 191 °C
Cc1ccccc1C(=O)Nc1ccc(C(=O)N2CCCC(N(C)CC#N)c3ccccc32)cc1 (stereo not given) = 227 to 228 °C
Cc1nn(-c2cc(Sc3ccc(O)cc3)c(Cl)cc2Cl)c(=O)n1C(F)F = 228 to 229 °C
Cc1ccc(C2=C(C#N)C(c3cccc4nonc34)c3c[nH]nc3N2)s1 (stereo not given) = 192 °C
O=C(OCc1ccccc1)C(=C1NCCCS1)[N+](=O)[O-] = 78 to 79 °C

Asked: Provide measured melting point value, entry: "CS(=O)(=O)c1nc(Cl)cc(OCc2ccccc2)n1"
Given back: 74 to 77 °C

Asked: Name the recorded melting point of the item COC1CCCC(C(=O)Nc2ccc(-n3nc(C(F)(F)F)cc3C(F)(F)F)cc2)C1 (stereo not given) in your answer.
Given back: 145 to 147 °C

Asked: Give a short answer stating reported melting point for "COc1ccc(Nc2cc(NC(C)C)ncn2)cc1" .
Given back: 180 to 182 °C

Asked: Return melting point for the following compound: "Fc1ccc(N2CCN(CCCOc3ccc(-c4nnco4)cc3)CC2)cc1"
Given back: 157 to 158 °C

Asked: Identify the reported melting point for the following entry. "O=C(O)c1ccc(OCCCCl)cn1"
Given back: 120 to 121 °C

Asked: Answer with the recorded melting point of CON(C)C(=O)C(Cc1c[nH]c2ccccc12)NC(=O)OC(C)(C)C (stereo not given) only.
Given back: 129 to 130 °C

Asked: Report measured melting point; entry is "O=C(Nc1cc(C(F)(F)F)ccc1Cl)Nc1cc(Cl)cc(Br)c1O"
Given back: 261 to 274 °C

Asked: Query melting point for "COc1ccc(C(=NOCc2ccccc2)c2cccc([N+](=O)[O-])c2)cc1"
Given back: 100 to 101 °C

Asked: Give melting point for "Cn1cc(C(=O)Nc2ccccc2-c2cc(Cl)cc(Cl)c2)c(C(F)(F)F)n1"
Given back: 101 to 105 °C

Asked: Hello, please tell me recorded melting point for this one: "CCCc1c(OCCCCCCc2cccc(OCCCCCCCC(=O)O)c2CCC(=O)O)ccc2c1OCCC2=O"
Given back: 79 to 81 °C

Cited source: a melting point compilation (Tetko et al.; mined from patent text by program, amines drawn as free bases though some values may be those of a salt)
